biological target: UniProt:O95760; details: 30 µM
The reader will find reported inhibition values listed item by item below.
readout: inhibition (%)

INSERT INTO assay_data (molecule, value_measured) VALUES
  ('CCOC(=O)c1nc(-c2ccc(C(F)(F)F)cc2)oc1-c1ccc(OC)c(OC)c1 [Compound 47]', -57),
  ('O=C(NCCN1CCNCC1)c1nc(-c2ccc(C(F)(F)F)cc2)oc1-c1ccccc1[N+](=O)[O-] [Compound 281]', 73),
  ('CN1CCN(CCNC(=O)c2nc(-c3ccc(C#N)cc3)oc2-c2ccccc2)CC1 [Compound 250]', 14),
  ('CN1CCN(CCNC(=O)c2nc(-c3ccc(Cl)cc3)oc2-c2ccccc2)CC1 [Compound 245]', 15),
  ('CN(C)CCNC(=O)c1nc(-c2ccc(-c3ccccc3)cc2)oc1-c1ccccc1[N+](=O)[O-] [Compound 255]', -10),
  ('CCOC(=O)c1nc(-c2ccccc2C(F)(F)F)oc1-c1ccccc1 [Compound 27]', 34),
  ('CSc1ccc(-c2oc(-c3ccc(C(F)(F)F)cc3)nc2C(=O)NCCN2CCN(C(C)=O)CC2)cc1 [Compound 194]', 41),
  ('CCNC(=O)c1nc(-c2ccc(OC)cc2)oc1-c1ccccc1 [Compound 312]', -47),
  ('CN1CCN(CCNC(=O)c2nc(-c3ccc(C(C)(C)C)cc3)oc2-c2ccccc2)CC1 [Compound 266]', -29),
  ('CN(C)CCNC(=O)c1nc(-c2ccc(OC(F)(F)F)cc2)oc1-c1ccccc1[N+](=O)[O-] [Compound 205]', -11),
  ('CN1CCN(CCNC(=O)c2nc(-c3ccc(F)c(F)c3)oc2-c2ccccc2[N+](=O)[O-])CC1 [Compound 234]', 13),
  ('CCOC(=O)c1nc(-c2ccc3ccccc3c2)oc1-c1ccccc1 [Compound 83]', 22),
  ('O=C(Nc1ccccn1)c1nc(-c2ccc(C(F)(F)F)cc2)oc1-c1ccccc1[N+](=O)[O-] [Compound 143]', 9),
  ('COc1cccc(-c2nc(C(=O)NCCN3CCN(C)CC3)c(-c3ccccc3[N+](=O)[O-])o2)c1 [Compound 211]', 13),
  ('O=C(NCCN1CCCC1)c1nc(-c2ccc(C(F)(F)F)cc2)oc1-c1ccccc1[N+](=O)[O-] [Compound 139]', 4),
  ('CCOC(=O)c1nc(-c2cccc(C(F)(F)F)c2)oc1-c1ccccc1[N+](=O)[O-] [Compound 30]', 42);

---

Test system: IL-6 secretion in the human mast cell line HMC 1.1
Test: IL-6 production inhibition assay (IL-33 stimulated HMC 1.1 cells, IL-6 ELISA)
Format: cell-based
Details: read-out: Inhibition of hIL-6 production EC50
Description: Human mast cell line HMC 1.1 cells were cultured in medium (Iscove's Modified Dulbecco's Medium, IMDM, HyClone) supplemented with […] fetal bovine serum (FBS, HyClone) and 1% antibiotics and maintained at 37° C. with 5% CO2. […] The average of the three values obtained in triplicate was calculated and the amount of IL-6 secretion was measured using a standard curve. The measured IL-6 secretion was converted to 100% based on the vehicle treatment sample value to obtain the vehicle %.
readout: EC50

INSERT INTO results (smiles_structure, value_measured) VALUES
  ('CN1CCN(CCNC(=O)c2nc(-c3cc(F)cc(F)c3)oc2-c2ccccc2[N+](=O)[O-])CC1', '6.3 µM'),
  ('CCNC(=O)c1nc(-c2ccc(C(F)(F)F)cc2)oc1-c1ccccc1', '0.13 µM'),
  ('CCNC(=O)c1nc(-c2ccc(C(F)(F)F)cc2)oc1-c1cccnc1', '0.11 µM'),
  ('CCOC(=O)c1nc(-c2ccc(C(F)(F)F)cc2)oc1-c1ccccc1OC', '2.56 µM');

---

The reader will find reported Cellular viability (%) (−) microsome values listed item by item below.
test system: Human liver cancer cell line HepG2 cells; test: Cellular viability, WST-8 assay, without or with human liver microsomes; type: cell-based; conditions: at 160 μM, HepG2, without human liver microsomes
readout: Cellular viability (%) (−) microsome (at %)

INSERT INTO results (smiles_structure, readout, value_measured) VALUES
  ('CCNC(=O)c1nc(-c2ccc(SC)cc2)oc1-c1ccccc1', 'Cellular viability (%) (−) microsome', 84),
  ('CCNC(=O)c1nc(-c2ccc(C(F)(F)F)cc2)oc1-c1cc(O)c(O)c(O)c1', 'Cellular viability (%) (−) microsome', 63),
  ('CCNC(=O)c1nc(-c2ccc(C(F)(F)F)cc2)oc1-c1ccccc1', 'Cellular viability (%) (−) microsome', 95),
  ('CCCNC(=O)c1nc(-c2ccc(SC)cc2)oc1-c1ccccc1', 'Cellular viability (%) (−) microsome', 47),
  ('CCNC(=O)c1nc(-c2ccc(C(F)(F)F)cc2)oc1-c1cccc(SC)c1', 'Cellular viability (%) (−) microsome', 106),
  ('CCNC(=O)c1nc(-c2ccc(C(F)(F)F)cc2)oc1-c1cc(O)cc(O)c1', 'Cellular viability (%) (−) microsome', 63),
  ('CCNC(=O)c1nc(-c2ccc(C(F)(F)F)cc2)oc1-c1cccnc1', 'Cellular viability (%) (−) microsome', 105),
  ('CCCNC(=O)c1nc(-c2ccc(C(F)(F)F)cc2)oc1-c1cccnc1', 'Cellular viability (%) (−) microsome', 27);

---

Target: IL33 and ST2 binding (Homo sapiens)
Sequence (O95760 112-270 limits assumed): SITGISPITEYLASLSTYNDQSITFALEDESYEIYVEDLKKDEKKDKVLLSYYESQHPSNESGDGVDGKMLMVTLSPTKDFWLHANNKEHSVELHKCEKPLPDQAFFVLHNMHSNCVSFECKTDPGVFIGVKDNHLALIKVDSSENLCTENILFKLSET
Settings: 30 µM
Please use Condition met whenever inhibition is not below 10%, and Condition not met whenever it is.

INSERT INTO measurements (smiles_structure, answer_label) VALUES
  ('CN(C)CCNC(=O)c1nc(-c2cccc(F)c2)oc1-c1ccccc1[N+](=O)[O-]', 'Condition not met'),
  ('CN(C)CCNC(=O)c1nc(-c2ccc(F)cc2)oc1-c1ccccc1[N+](=O)[O-]', 'Condition not met'),
  ('CCOC(=O)c1nc(-c2ccc(C(F)(F)F)cc2)oc1-c1cccc(N)c1', 'Condition not met'),
  ('CN1CCN(CCNC(=O)c2coc(-c3ccc(C(F)(F)F)cc3)n2)CC1', 'Condition not met'),
  ('CCNC(=O)c1nc(-c2ccc(C(F)(F)F)cc2)oc1-c1ccccc1OC(F)(F)F', 'Condition not met'),
  ('CS(=O)(=O)N1CCN(CCNC(=O)c2nc(-c3ccc(C(F)(F)F)cc3)oc2-c2ccccc2[N+](=O)[O-])CC1', 'Condition met'),
  ('CN1CCN(CCNC(=O)c2nc(-c3cccc(OC(F)(F)F)c3)oc2-c2ccccc2)CC1', 'Condition not met'),
  ('CCNC(=O)c1nc(-c2ccc(C(F)(F)F)cc2)oc1-c1cccc(C#N)c1', 'Condition not met'),
  ('CCNC(=O)c1nc(-c2ccc(SC)cc2)oc1-c1ccccc1', 'Condition met'),
  ('CSc1ccc(-c2nc(C(=O)NCCN3CCN(C)CC3)c(-c3ccccc3[N+](=O)[O-])o2)cc1', 'Condition met'),
  ('O=C(c1nc(-c2ccc(C(F)(F)F)cc2)oc1-c1ccccc1[N+](=O)[O-])N1CCC(c2ccccc2)CC1', 'Condition not met'),
  ('CN(C)CCNC(=O)c1nc(-c2ccc(C3CC3)cc2)oc1-c1ccccc1', 'Condition met'),
  ('CN(C)CCNC(=O)c1nc(-c2ccc(-c3ccccc3)cc2)oc1-c1ccccc1', 'Condition met'),
  ('COc1ccc(-c2nc(C(=O)NCCN(C)C)c(-c3ccc([N+](=O)[O-])cc3)o2)cc1', 'Condition not met'),
  ('CCNC(=O)c1nc(-c2ccc(C(F)(F)F)cc2)oc1-c1cccc(SC)c1', 'Condition met'),
  ('CC(=O)N1CCN(CCNC(=O)c2nc(-c3ccc(C(F)(F)F)cc3)oc2-c2ccccc2[N+](=O)[O-])CC1', 'Condition met');

---

Biological target: IL33 and ST2 binding (Homo sapiens, UniProt O95760);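 further: plate ELISA with coated Flag-tagged human IL-33 and His-tagged human ST2, bound ST2 detected by anti-His HRP and TMB absorbance at 450 nm, 2 h compound incubation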
Sequence (O95760 112-270 limits assumed): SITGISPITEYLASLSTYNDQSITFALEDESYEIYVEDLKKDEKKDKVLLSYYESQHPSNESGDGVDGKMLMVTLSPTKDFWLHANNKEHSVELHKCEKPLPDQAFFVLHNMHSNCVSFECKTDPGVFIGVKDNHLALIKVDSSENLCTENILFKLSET
Conditions: 100 µM
The reader will find reported inhibition values listed item by item below.
readout: inhibition (%)

INSERT INTO results (smiles_structure, target_entity, value_measured) VALUES
  ('CN(C)CCNC(=O)c1nc(-c2ccc(F)cc2)oc1-c1ccccc1', 'IL33 and ST2 binding (Homo sapiens, UniProt O95760)', -18),
  ('CCOC(=O)c1nc(-c2ccc(C(F)(F)F)cc2)oc1-c1cccc([N+](=O)[O-])c1', 'IL33 and ST2 binding (Homo sapiens, UniProt O95760)', 108),
  ('CN(C)CCNC(=O)c1nc(-c2ccc(C#N)cc2)oc1-c1ccccc1', 'IL33 and ST2 binding (Homo sapiens, UniProt O95760)', 97),
  ('CN(C)CCNC(=O)c1nc(-c2cccc(C(F)(F)F)c2)oc1-c1ccccc1[N+](=O)[O-]', 'IL33 and ST2 binding (Homo sapiens, UniProt O95760)', 39);

Recorded values, source patent US20240287052A1.
